# EXPERIMENT DESCRIPTION: PK studies of formulations, plasma by HPLC-MS/MS
# Assay type: in vivo
# ASSAY CONDITIONS: bovine, plasma, sc, 10 mg/kg, pH 4.4, FormO50 (L-tartaric acid, NaOH up to pH 4.4, water), Cattle, 10 mg/kg, read-out: Cmax
READOUT KIND: Cmax (ng/mL)
Write the value in ng/mL as a bare number.

For COc1cc(NCCNC(=O)/C=C/C(C)(F)F)ccn1 the compound record lists Cmax as 5930

###

# EXPERIMENT DESCRIPTION: Stability tests of solutions of compound 4 with equimolar acids in water
# Format: physicochemical
# ASSAY CONDITIONS: water with equimolar acid, water, thermodynamic from solid, equimolar benzenesulfonic acid in water
READOUT KIND: solubility

solubility reported for this compound CCOc1cc(NCCNC(=O)/C=C/C(F)(F)F)ccn1 : < 50 mg/mL
